target: UniProt:O60674; assay: Inhibition of human recombinant JAK2
Sequence (O60674 whole entry): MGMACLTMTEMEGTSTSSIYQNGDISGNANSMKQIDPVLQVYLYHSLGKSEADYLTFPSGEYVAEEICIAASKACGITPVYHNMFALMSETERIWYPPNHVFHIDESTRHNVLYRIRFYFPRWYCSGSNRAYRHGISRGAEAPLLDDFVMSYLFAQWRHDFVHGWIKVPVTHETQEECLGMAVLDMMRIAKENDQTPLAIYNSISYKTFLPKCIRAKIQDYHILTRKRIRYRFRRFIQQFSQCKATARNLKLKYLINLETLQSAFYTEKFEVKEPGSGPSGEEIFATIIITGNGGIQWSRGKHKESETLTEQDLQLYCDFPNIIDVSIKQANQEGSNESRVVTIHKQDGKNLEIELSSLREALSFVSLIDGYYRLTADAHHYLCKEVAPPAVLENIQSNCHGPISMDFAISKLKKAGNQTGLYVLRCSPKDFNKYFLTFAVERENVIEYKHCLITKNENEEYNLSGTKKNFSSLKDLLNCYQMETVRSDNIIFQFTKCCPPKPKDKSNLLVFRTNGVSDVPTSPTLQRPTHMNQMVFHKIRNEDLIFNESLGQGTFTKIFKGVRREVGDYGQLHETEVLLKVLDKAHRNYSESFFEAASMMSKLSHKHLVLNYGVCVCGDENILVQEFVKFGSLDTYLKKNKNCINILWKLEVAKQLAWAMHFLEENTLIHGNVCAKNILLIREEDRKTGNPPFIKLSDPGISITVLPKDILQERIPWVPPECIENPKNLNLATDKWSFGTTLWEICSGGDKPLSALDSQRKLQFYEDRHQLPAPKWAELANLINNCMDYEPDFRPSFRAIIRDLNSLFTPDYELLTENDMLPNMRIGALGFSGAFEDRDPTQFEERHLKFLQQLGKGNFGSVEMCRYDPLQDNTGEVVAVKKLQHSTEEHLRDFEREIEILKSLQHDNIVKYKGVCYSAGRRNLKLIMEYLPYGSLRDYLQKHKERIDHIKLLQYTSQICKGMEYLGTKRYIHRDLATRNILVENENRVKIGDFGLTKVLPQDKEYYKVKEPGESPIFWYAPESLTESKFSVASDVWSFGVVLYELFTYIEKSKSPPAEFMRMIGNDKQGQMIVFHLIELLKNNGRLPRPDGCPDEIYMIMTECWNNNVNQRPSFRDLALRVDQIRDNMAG
measured.endpoint: IC50

[[record]]
compound_structure_string = "COc1ccc(-c2cccc3nc(NC(=O)C4CC4)nn23)cc1"
result = "138 nM"


---

assay: Tmax in rat at 5 mg/kg, po; format: ADME, organism-based; design: dose 5 mg/kg, route oral; conditions: in vivo
Entries annotated with measured Tmax
measured.endpoint: Tmax (min)

[[record]]
compound_structure_string = "O=C(Nc1nc2cccc(-c3ccc(CN4CCS(=O)(=O)CC4)cc3)n2n1)C1CC1"
numeric_readout = 132

[[record]]
compound_structure_string = "O=C(Nc1nc2cccc(-c3ccc(CN4CCC(F)(F)CC4)cc3)n2n1)C1CC1"
numeric_readout = 15

[[record]]
compound_structure_string = "O=C(Nc1nc2cccc(-c3ccc(CN4CCOCC4)cc3)n2n1)C1CC1"
numeric_readout = 19.8


The reported numbers originate from ChEMBL document CHEMBL3351789.
